Biological target: FXR (Homo sapiens (Human), UniProt Q96RI1)
Sequence (Q96RI1 262-486): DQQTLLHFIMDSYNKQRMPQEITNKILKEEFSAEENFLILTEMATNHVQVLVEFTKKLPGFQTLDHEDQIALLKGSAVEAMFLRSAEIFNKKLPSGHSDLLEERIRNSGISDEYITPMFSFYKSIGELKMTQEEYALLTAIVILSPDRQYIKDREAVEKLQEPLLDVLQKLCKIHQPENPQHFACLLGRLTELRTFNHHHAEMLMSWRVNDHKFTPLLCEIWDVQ
Test: FXR EC50 (FXR agonist activity reported with each example)
Assay type: cell-based
reported.property: log10(EC50) (log10 of the value in nM)
The common logarithm of EC50 in nM is what is listed.

Example compounds with recorded log10(EC50):
{"columns": ["compound", "log10(EC50)"],
 "data": [
  ["O=C(O)c1cccc(CNC(=O)C23CCC(OCc4c(-c5c(Cl)cccc5Cl)noc4C4CC4)(CC2)CC3)c1 [Example 143]", 3.11],
  ["O=C(O)c1ccc(-c2nc(C34CCC(OCc5c(-c6ccccc6OC(F)(F)F)noc5C5CC5)(CC3)CC4)no2)cc1 [Example 57]", 2.81],
  ["COc1ccc(-c2nc(C34CCC(OCc5c(-c6c(Cl)cncc6Cl)noc5C5CC5)(CC3)CC4)cs2)cc1C(=O)O [Example 255]", 1.26],
  ["O=C(O)c1cc(C#CC23CCC(OCc4c(-c5c(Cl)cncc5Cl)noc4C4CC4)(CC2)CC3)c2cc[nH]c2c1 [Example 416]", 1.60],
  ["O=C(O)c1cccc2nc(C34CCC(C=Cc5c(-c6c(Cl)cccc6Cl)noc5C5CC5)(CC3)CC4)sc12 [Example 184]", 1.30],
  ["Cn1cc(C(=O)O)c2ccc(OCC34CCC(OCc5c(-c6c(Cl)cncc6Cl)noc5C5CC5)(CC3)CC4)cc21 [Example 97]", 1.45]
]}

Next, consider the following compound.
Prompt line: Could you tell me which log10(EC50) is on file for COc1cc(OCC23CCC(OCc4c(-c5c(Cl)cncc5Cl)noc4C4CC4)(CC2)CC3)cnc1C(=O)O [Example 335] ?
Response line: 2.23
